I'd appreciate it if you could supply cell viability values for the items below.
Test system: SEM cells
Experiment: cell viability relative to DMSO control; higher = less cytotoxic
Settings: RPMI 5 mM glucose + 10% dialyzed FBS; 48 h; 46.1 µM

Query block: Fill in cell viability for record C[C@@H](N)C1CC[C@@H](CC1)C(=O)NC2=CC=NC=C2 (stereo partly specified)
Result block: 114%

Query block: Fill in cell viability for record O=C(NCc1ccccc1)c1csc(Nc2ccncn2)n1
Result block: 1.35%

Query block: Fill in cell viability for record CN1CCC(CC1)=C2C3=C(C=CC=C3)\C=C/C4=C2C=CC=C4
Result block: 86.7%

Query block: Fill in cell viability for record C[N+]1(C)[C@@H]2CC(OC(=O)C(O)(c3cccs3)c3cccs3)C[C@H]1[C@@H]1O[C@@H]12 (stereo partly specified)
Result block: 101%

Query block: Fill in cell viability for record CN(C)CCc1c[nH]c2ccc(C[S+](=O)([O-])N3CCCC3)cc12
Result block: 65%

Query block: Fill in cell viability for record Oc1ccc([C@@H]2Oc3ccc(O)cc3[C@@H]3CCC[C@@H]32)cc1
Result block: 18.4%

Query block: Fill in cell viability for record Nc1nc(NCCNc2ncc(-n3ccnc3)c(-c3ccc(Cl)cc3Cl)n2)ccc1[N+](=O)[O-]
Result block: 103%

Query block: Fill in cell viability for record CN(C(Cc1ccc(O[S+](=O)([O-])c2cccc3cnccc23)cc1)C(=O)N1CCN(c2ccccc2)CC1)[S+](=O)([O-])c1cccc2cnccc12 (stereo unspecified)
Result block: 34.5%

Query block: Fill in cell viability for record Nc1ccn([C@H]2CS[C@@H](CO)O2)c(=O)n1
Result block: 135%

Query block: Fill in cell viability for record Oc1ccc(-c2ccc(-c3cc(Nc4cccc(CNC5CC5)c4)[nH]n3)cc2)c(O)c1
Result block: 9.47%

Query block: Fill in cell viability for record O=C(O)Cc1cccc(OCCCN(Cc2cccc(C(F)(F)F)c2Cl)CC(c2ccccc2)c2ccccc2)c1
Result block: 111%

====

Tested on: SEM cells
Experiment: AUC of viability dose-response curve (% viability x log10 dose units); higher = less sensitive
Details: HPLM + 10% dialyzed FBS; 48 h
MEASURE: AUC of viability dose-response curve

Query block: Fill in AUC of viability dose-response curve for record Cc1ccc(-c2cc(C(F)(F)F)nn2-c2ccc([S+](N)(=O)[O-])cc2)cc1
Result block: 464

Query block: Fill in AUC of viability dose-response curve for record Cc1cnc(Nc2ccc(N3CCN(C)CC3)cc2)nc1Nc1cccc([S+](=O)([O-])NC(C)(C)C)c1
Result block: 311

Query block: Fill in AUC of viability dose-response curve for record CC/1=C(\CCN2CCC(CC2)C3=NOC4=C3C=CC(=C4)F)C(=O)N/5CCCCC5=N1
Result block: 475

Query block: Fill in AUC of viability dose-response curve for record N=C(N)Nc1ccc(C(=O)Oc2ccc3cc(C(=N)N)ccc3c2)cc1
Result block: 419

Query block: Fill in AUC of viability dose-response curve for record C[C@@H](N)C1CC[C@@H](CC1)C(=O)NC2=CC=NC=C2 (stereo not given in full)
Result block: 438

====

System: P12-Ichikawa
Assay: cell viability relative to DMSO control; higher = less cytotoxic
Settings: RPMI 5 mM glucose + 10% FBS; 48 h; 0.19 µM
I'd appreciate it if you could supply cell viability values for the items below.
Use % as the unit, but write only the number.

Query block: Fill in cell viability for record COC(=O)Nc1nc2ccc([S+]([O-])c3ccccc3)cc2[nH]1 (centres undefined)
Result block: 120

Query block: Fill in cell viability for record Cn1cnc([N+](=O)[O-])c1Sc1ncnc2nc[nH]c12
Result block: 95.1

Query block: Fill in cell viability for record Cc1nc(N)ncc1-c1nc(N2CCOCC2)c2sc(C(C)(C)O)cc2n1
Result block: 121

Query block: Fill in cell viability for record Oc1ccc(-c2ccc(-c3cc(Nc4cccc(CNC5CC5)c4)[nH]n3)cc2)c(O)c1
Result block: 116

Query block: Fill in cell viability for record CN(C)CCc1c[nH]c2ccc(C[S+](=O)([O-])N3CCCC3)cc12
Result block: 115

Query block: Fill in cell viability for record CC[C@@H]1C(=O)N(C)c2cnc(Nc3ccc(C(=O)NC4CCN(C)CC4)cc3OC)nc2N1C1CCCC1
Result block: 15.3

Query block: Fill in cell viability for record O=[S+]([O-])(NCCNC/C=C/c1ccc(Br)cc1)c1cccc2cnccc12
Result block: 108

Query block: Fill in cell viability for record Oc1ccc([C@@H]2Oc3ccc(O)cc3[C@@H]3CCC[C@@H]32)cc1
Result block: 87

Query block: Fill in cell viability for record O=C(NCC1CCOCC1)c1cnc(Nc2ccc(Cl)cc2Cl)nc1C(F)(F)F
Result block: 131

Source of measurements: the supplement of paper PMC11451515
